# measurement_target: EGFR L858R/T790M/C797S (Homo sapiens (Human), UniProt P00533, C797S/L858R/T790M)
# Sequence (P00533 25-1210 T790M/C797S/L858R): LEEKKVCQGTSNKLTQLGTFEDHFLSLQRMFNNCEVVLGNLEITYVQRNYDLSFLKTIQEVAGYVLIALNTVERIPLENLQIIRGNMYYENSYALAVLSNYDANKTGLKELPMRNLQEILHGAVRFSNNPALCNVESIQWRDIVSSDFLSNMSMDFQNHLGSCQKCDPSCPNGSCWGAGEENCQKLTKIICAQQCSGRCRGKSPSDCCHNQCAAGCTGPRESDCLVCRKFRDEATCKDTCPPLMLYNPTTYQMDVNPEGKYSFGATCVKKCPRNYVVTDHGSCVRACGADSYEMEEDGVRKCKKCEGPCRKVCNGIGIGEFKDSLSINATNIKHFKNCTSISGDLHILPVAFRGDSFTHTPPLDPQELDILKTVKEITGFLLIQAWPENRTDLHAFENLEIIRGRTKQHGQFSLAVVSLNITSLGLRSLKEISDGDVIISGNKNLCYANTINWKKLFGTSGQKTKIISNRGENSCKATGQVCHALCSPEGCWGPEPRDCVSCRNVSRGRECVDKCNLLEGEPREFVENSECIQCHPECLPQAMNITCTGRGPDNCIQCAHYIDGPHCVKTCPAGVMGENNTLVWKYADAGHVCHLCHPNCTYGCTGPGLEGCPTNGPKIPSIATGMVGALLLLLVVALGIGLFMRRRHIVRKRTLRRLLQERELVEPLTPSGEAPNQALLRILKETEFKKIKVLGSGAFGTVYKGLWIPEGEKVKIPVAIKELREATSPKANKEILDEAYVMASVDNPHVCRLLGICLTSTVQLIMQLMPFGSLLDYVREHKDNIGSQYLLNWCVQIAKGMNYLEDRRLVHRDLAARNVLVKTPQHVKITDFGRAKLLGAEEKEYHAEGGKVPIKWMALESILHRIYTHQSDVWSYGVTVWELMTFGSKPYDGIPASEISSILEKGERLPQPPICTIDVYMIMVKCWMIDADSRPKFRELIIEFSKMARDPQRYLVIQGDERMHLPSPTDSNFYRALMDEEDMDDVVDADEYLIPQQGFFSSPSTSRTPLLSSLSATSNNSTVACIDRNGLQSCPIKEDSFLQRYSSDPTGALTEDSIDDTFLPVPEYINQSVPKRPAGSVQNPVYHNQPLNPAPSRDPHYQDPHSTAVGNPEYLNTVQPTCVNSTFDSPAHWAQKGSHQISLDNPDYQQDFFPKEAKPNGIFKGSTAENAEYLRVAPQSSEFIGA
# test_protocol: In vitro enzymatic TR-FRET (HTRF KinEASE-TK) kinase assay, EGFR L858R/T790M/C797S
# settings: kinase activity
IC50 values for the compounds below.

INSERT INTO results (compound, metric_name, value_observed) VALUES
  ('COc1cc2c(cc1Nc1ncc(Cl)c(Nc3ccccc3P(C)(C)=O)n1)-c1cnn(C)c1CCN2C(C)C', 'IC50', '< 1 nM'),
  ('COc1cc2c(cc1Nc1ncc(Br)c(Nc3ccc4nccnc4c3P(C)(C)=O)n1)-c1cccnc1CCN2C', 'IC50', '< 1 nM'),
  ('COc1cc2c(cc1Nc1ncc(Br)c(Nc3ccccc3P(C)(C)=O)n1)-c1cnn(C3COC3)c1CCN2C(C)C [Compound 77A]', 'IC50', '< 1 nM'),
  ('COc1cc2c(cc1Nc1ncc(Br)c(Nc3ccc4nccnc4c3P(C)(C)=O)n1)-c1cnn(C)c1CCN2C1CN(C)C1', 'IC50', '< 1 nM'),
  ('COc1cc2c(cc1Nc1ncc(Br)c(Nc3ccc4nccnc4c3N3CCCS3(=O)=O)n1)-c1cnn(C)c1CCN2C(C)C', 'IC50', '1 to 10 nM'),
  ('COc1cc2c(cc1Nc1nccc(Nc3ccccc3P(C)(C)=O)n1)-c1cnn(C)c1CCN2C', 'IC50', '1 to 10 nM');

Then there is this compound:
Prompt: What value of IC50 has been recorded for this entry: COc1cc2c(cc1Nc1ncc(Br)c(Nc3ccc4nccnc4c3NS(C)(=O)=O)n1)-c1cnn(C)c1CCN2C
Completion: < 1 nM

* * *

# measurement_target: EGFR WT (wild type EGFR) (Homo sapiens (Human), UniProt P00533)
# Sequence (P00533 25-1210): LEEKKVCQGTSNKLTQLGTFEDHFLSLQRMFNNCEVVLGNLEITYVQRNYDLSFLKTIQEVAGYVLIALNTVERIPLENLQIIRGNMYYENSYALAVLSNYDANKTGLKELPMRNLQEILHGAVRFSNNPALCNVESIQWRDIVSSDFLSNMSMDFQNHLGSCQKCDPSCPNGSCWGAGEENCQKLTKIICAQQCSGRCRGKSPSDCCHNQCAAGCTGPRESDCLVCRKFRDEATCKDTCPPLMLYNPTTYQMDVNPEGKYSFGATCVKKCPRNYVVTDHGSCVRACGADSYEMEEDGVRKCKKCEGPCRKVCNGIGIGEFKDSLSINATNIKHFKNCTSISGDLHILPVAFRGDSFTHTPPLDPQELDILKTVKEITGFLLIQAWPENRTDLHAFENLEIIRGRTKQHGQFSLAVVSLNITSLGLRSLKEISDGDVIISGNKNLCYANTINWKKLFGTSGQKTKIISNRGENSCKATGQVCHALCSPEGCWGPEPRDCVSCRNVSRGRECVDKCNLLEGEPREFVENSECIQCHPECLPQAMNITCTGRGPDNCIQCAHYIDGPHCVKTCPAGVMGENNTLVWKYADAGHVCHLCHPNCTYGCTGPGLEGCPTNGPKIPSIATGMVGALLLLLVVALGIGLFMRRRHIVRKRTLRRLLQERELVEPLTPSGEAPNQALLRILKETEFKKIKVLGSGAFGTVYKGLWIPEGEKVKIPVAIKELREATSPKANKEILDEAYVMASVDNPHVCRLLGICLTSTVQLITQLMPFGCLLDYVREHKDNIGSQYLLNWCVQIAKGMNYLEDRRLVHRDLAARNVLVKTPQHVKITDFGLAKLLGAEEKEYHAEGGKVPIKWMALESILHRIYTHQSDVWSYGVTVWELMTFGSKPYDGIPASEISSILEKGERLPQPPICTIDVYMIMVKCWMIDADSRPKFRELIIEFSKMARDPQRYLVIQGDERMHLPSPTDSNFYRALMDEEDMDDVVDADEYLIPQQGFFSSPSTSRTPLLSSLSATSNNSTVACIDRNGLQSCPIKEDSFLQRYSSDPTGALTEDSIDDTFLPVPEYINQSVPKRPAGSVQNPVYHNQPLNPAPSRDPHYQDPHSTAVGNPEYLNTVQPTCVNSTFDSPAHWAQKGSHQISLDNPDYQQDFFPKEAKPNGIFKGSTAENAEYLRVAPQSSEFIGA
# test_protocol: In vitro enzymatic TR-FRET (HTRF KinEASE-TK) kinase assay, EGFR WT
# Format: biochemical
# settings: kinase activity, TR-FRET; read-out: EGFR (WT) IC50
metric_name: IC50

Below, each entry is followed by its recorded IC50 result.
INSERT INTO results (compound, measurement_target, value_observed) VALUES
  ('COc1cc2c(cc1Nc1ncc(Br)c(Nc3ccc4nccnc4c3P(C)(C)=O)n1)-c1cnn(C)c1CCN2C1CCN(C)C[C@@H]1F (stereo partly shown) [Compound 68]', 'EGFR WT (wild type EGFR) (Homo sapiens (Human), UniProt P00533)', '< 1 nM'),
  ('COc1cc2c(cc1Nc1ncc(Br)c(Nc3ccccc3S(=O)(=O)N(C)C)n1)-c1cnn(C)c1CCN2C(C)C [Compound 126]', 'EGFR WT (wild type EGFR) (Homo sapiens (Human), UniProt P00533)', '1 to 10 nM'),
  ('COc1cc2c(cc1Nc1ncc(Br)c(Nc3ccc4nccnc4c3NC(C)=O)n1)-c1cnn(C)c1CCN2C(C)C [Compound 106]', 'EGFR WT (wild type EGFR) (Homo sapiens (Human), UniProt P00533)', '1 to 10 nM');

Then there is this compound:
Prompt: What value of IC50 has been recorded for this entry: COc1cc2c(cc1Nc1ncc(Br)c(Nc3ccccc3P(C)(C)=O)n1)-c1cnn(C3COC3)c1CCN2C(C)C [Compound 77A]
Completion: 1 to 10 nM

* * *

# measurement_target: EGFR WT (wild type EGFR) (Homo sapiens (Human), UniProt P00533)
# test_protocol: In vitro enzymatic TR-FRET (HTRF KinEASE-TK) kinase assay, EGFR WT
# Type: biochemical
# settings: kinase activity, TR-FRET; read-out: EGFR (WT) IC50
pIC50: −log10 of the molar value.
pIC50 values for the compounds below.

Prompt: What value of pIC50 has been recorded for this entry: COc1cc2c(cc1Nc1ncc(Br)c(Nc3ccn4ccnc4c3NS(C)(=O)=O)n1)-c1cnn(C)c1CCN2C(C)C
Completion: 8.00 to 9.00

Prompt: What value of pIC50 has been recorded for this entry: COc1cc2c(cc1Nc1ncc(Cl)c(Nc3ccncc3P(C)(C)=O)n1)-c1cnn(C)c1CCN2C(C)C
Completion: 8.00 to 9.00

Prompt: What value of pIC50 has been recorded for this entry: COc1cc2c(cc1Nc1ncc(Br)c(Nc3ccc4nccnc4c3N3CCCS3(=O)=O)n1)-c1cnn(C)c1CCN2C(C)C
Completion: 7.30 to 8.00

Prompt: What value of pIC50 has been recorded for this entry: COc1cc2c(cc1Nc1ncc(Br)c(Nc3ccccc3P(C)(C)=O)n1)-c1cnn(C)c1CCN2C1CCN(C)CC1F (stereo not shown)
Completion: 8.00 to 9.00

Prompt: What value of pIC50 has been recorded for this entry: COc1cc2c(cc1Nc1ncc(Br)c(Nc3ccccc3P(C)(C)=O)n1)-c1cnn(C)c1CCN2CC(F)(F)F
Completion: 7.30 to 8.00

Prompt: What value of pIC50 has been recorded for this entry: COc1cc2c(cc1Nc1ncc(Cl)c(Nc3ccccc3P(C)(C)=O)n1)-c1cnn(C)c1CCN2C(C)C
Completion: 8.00 to 9.00

Prompt: What value of pIC50 has been recorded for this entry: COc1cc2c(cc1Nc1ncc(Br)c(Nc3ccc4nccnc4c3P(C)(C)=O)n1)-c1cnn(C)c1CN(C(C)C)C2
Completion: 8.00 to 9.00

* * *

# measurement_target: EGFR L858R/T790M/C797S (Homo sapiens (Human), UniProt P00533, C797S/L858R/T790M)
# test_protocol: In vitro enzymatic TR-FRET (HTRF KinEASE-TK) kinase assay, EGFR L858R/T790M/C797S
# settings: kinase activity
metric_name: IC50

INSERT INTO measurements (given_smiles, value_observed) VALUES
  ('COc1cc2c(cc1Nc1ncc(Br)c(Nc3ccc4nccnc4c3NS(C)(=O)=O)n1)-c1cccnc1CCN2C(C)C', '1 to 10 nM'),
  ('Cc1cnc(Nc2cc3c(cc2OC(C)C)N(C)CCc2c-3cnn2C)nc1Nc1ccccc1P(C)(C)=O', '1 to 10 nM');

Then there is this compound:
Prompt: What value of IC50 has been recorded for this entry: COc1nc2c(cc1Nc1ncc(Br)c(Nc3ccc4nccnc4c3P(C)(C)=O)n1)-c1cnn(C)c1CCN2C(C)C
Completion: 1 to 10 nM

* * *

IC50 values for the molecules below.
# measurement_target: EGFR WT (wild type EGFR) (Homo sapiens (Human))
# test_protocol: In vitro enzymatic TR-FRET (HTRF KinEASE-TK) kinase assay, EGFR WT
# Type: biochemical
# settings: kinase activity, TR-FRET; read-out: EGFR (WT) IC50
# Procedure: (I) In Vitro Enzymatic Experiment for EGFR WT and EGFR L858R/T790M/C797S In the assay, the inhibition effect of the compound on the kinase activity of EGFR WT (wild type EGFR) and EGFR L858R/T790M/C797S was tested by adopting a time-resolved fluorescence resonance energy transfer (TR-FRET) method, and half maximal inhibitory concentration IC50 of the compound on the kinase activity of EGFR was obtained. […] 7) The ratio of fluorescence signal values at 665 nm and 615 nm was calculated for each well. […]

Prompt: What value of IC50 has been recorded for this entry: COc1cc2c(cc1Nc1ncc(Br)c(Nc3ccc4nccnc4c3NS(C)(=O)=O)n1)-c1cnn(C)c1CCN2CC(F)(F)F
Completion: > 1000 nM

Prompt: What value of IC50 has been recorded for this entry: COc1cc2c(cc1Nc1ncc(Br)c(Nc3ccc(F)cc3NS(C)(=O)=O)n1)-c1cnn(C)c1CCN2C(C)C
Completion: 1 to 10 nM

Prompt: What value of IC50 has been recorded for this entry: COc1cc2c(cc1Nc1ncc(Br)c(Nc3ccc4nccnc4c3C(=O)N(C)C)n1)-c1cnn(C)c1CCN2C(C)C
Completion: 1 to 10 nM

* * *

# measurement_target: EGFR WT (wild type EGFR) (Homo sapiens (Human), UniProt P00533)
# test_protocol: In vitro enzymatic TR-FRET (HTRF KinEASE-TK) kinase assay, EGFR WT
# Format: biochemical
# settings: kinase activity, TR-FRET; read-out: EGFR (WT) IC50
metric_name: IC50

INSERT INTO results (molecule, value_observed) VALUES
  ('CCN1CCc2c(cnn2C)-c2cc(Nc3ncc(C)c(Nc4ccccc4P(C)(C)=O)n3)c(OC)cc21', '1 to 10 nM');

Prompt: What value of IC50 has been recorded for this entry: COc1cc2c(cc1Nc1ncc(Br)c(Nc3ccccc3P(C)(C)=O)n1)-c1scnc1CCN2C
Completion: 1 to 10 nM

Prompt: What value of IC50 has been recorded for this entry: COc1nc2c(cc1Nc1ncc(Br)c(Nc3ccccc3P(C)(C)=O)n1)-c1cnn(C)c1CCN2
Completion: 10 to 50 nM

Prompt: What value of IC50 has been recorded for this entry: COc1cc2c(cc1Nc1ncc(Cl)c(Nc3ccccc3P(C)(C)=O)n1)-c1cnn(C)c1CCN2C
Completion: 1 to 10 nM

Prompt: What value of IC50 has been recorded for this entry: CCn1ncc2c1CCN(C)c1cc(OC)c(Nc3ncc(Br)c(Nc4ccccc4P(C)(C)=O)n3)cc1-2
Completion: 10 to 50 nM

Prompt: What value of IC50 has been recorded for this entry: COc1cc2c(cc1Nc1ncc(Br)c(Nc3ccccc3P(C)(C)=O)n1)-c1cnn(C)c1CCN2[C@H]1CCN(C)C[C@@H]1F (single isomer, unassigned) [Compound 66B]
Completion: 1 to 10 nM

Prompt: What value of IC50 has been recorded for this entry: COc1cc2c(cc1Nc1ncc(Br)c(Nc3ccc4nccnc4c3NS(C)(=O)=O)n1)-c1cccnc1CCN2C(C)C
Completion: 50 to 100 nM

Cited source for all entries: patent US20240034743A9
